Source listed as patent US20180127503A1.

# subject-of-test: T1, human ROR2 expressed on the cell surface (human, UniProt Q01974 34-943)
# T1 construct: Endogenous ROR2 of human tumour cell lines; also called cell surface ROR2; ROR2 on tumour cell lines
# assay-details: flow cytometry, CHP100 cells (EW/PNET)
# Parameters: unit not given here
# Experimental: Human tumour cell lines were authenticated using short tandem repeat (STR) analysis. They were cultured in RPMI1640 (Cellgro) supplemented with 10% fetal bovine serum (FBS, Life Technologies) at 37° C. in a 5% CO₂ humidified incubator. They were harvested, washed in PBS and reacted with ROR2-IgG at 1 ug/10⁶ tumour cells on ice for an hour. #901-IgG was used as a negative control at the same dose. […] Staining was analyzed on a FACSCalibur (BD Biosciences). […]
For each record, write down the corresponding binding intensity.

Request: Query: binding intensity; subject: ROR2-240 full length human IgG1 antibody (antibody, V domains shown, also called clone #240 IgG1) VH: QITLKESGPELVKPTQTLTLTCTFSGFSLSTSGMSVSWIRQPPGKALEWLARIDWDDDKYYSTSLKTRLTISKDTSKNQVVLTMTNTDPVDTATYYCARGFYLAYGSYDSWGQGTLVTVSS VL: QSALTQPASVSGSPGQSITISCTGTSGDVGGYNYVSWYQHHPGKAPKLIIYDVNKRPSGFSDRFSGSKSGNTASLTISGLQAEDEADYYCSSYTSTSTVFGGGTKLTVLG
Result: 7

Request: Query: binding intensity; subject: ROR2-23 full length human IgG1 antibody (antibody, V domains shown, The light chain of clone 023 is labelled kappa; also called clone #23; clone #023 IgG1) VH: EVQLVQSGAEVKKPGESLKISCQGSGYRFSKYWIGWVRQMPGKGLEWMGIIYPGDSDTRYSPSFQGQVTISADKSISTAYLQWSSLKASDTAMYYCARSFSSFIYDYWGQGTLVTVSS VL: ETTLTQSPGTLSVSPGERATLSCRASQSVSSNLAWYQQKRGQAPRLLIYGASTRATGIPVRFSGSGSGTEFTLTISRLEPEDFAVYYCQQYGRSPLTFGGGTKVDIKR
Result: 30

Request: Query: binding intensity; subject: ROR2-90 full length human IgG1 antibody (antibody, V domains shown, also called clone #90; antibody #90) VH: EVQLVESGPGLVKPSQTLSLTCTVSGGSISSGGYYWSWIRQHPGKGLEWIGYIYYSGSTYYNPSLKSRVTISVDTSKNQFSLKLSSVTAADTAMYYCARGGLYWTYSQDVWGQGTLVTVSS VL: QPVLTQPPSASGTPGQRVTISCSGSSSNIGSDYVSWYQQLPGTAPKLLIYRNDQRPSGVPDRFSGSKSGTSASLAISGLRSEDEADYYCVAWDDSLSGYVFGSGTKVTVLG
Result: 57
